tested-on: P2Y purinoceptor 2 (Mus musculus, UniProt P35383)
Sequence (P35383 whole entry): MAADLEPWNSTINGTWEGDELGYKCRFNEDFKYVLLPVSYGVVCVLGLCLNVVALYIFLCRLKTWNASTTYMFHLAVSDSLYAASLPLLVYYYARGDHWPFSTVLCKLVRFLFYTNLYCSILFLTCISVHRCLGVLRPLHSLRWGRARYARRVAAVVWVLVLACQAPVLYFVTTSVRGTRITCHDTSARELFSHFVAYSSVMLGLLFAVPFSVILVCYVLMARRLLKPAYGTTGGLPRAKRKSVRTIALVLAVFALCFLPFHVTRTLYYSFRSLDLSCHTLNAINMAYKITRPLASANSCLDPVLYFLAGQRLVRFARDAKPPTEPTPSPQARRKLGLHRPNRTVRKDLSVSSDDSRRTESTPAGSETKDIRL
protocol-notes: Antagonist activity at mouse P2Y2 receptor expressed in NG108-15 hybrid cells assessed as inhibition of 1 uM UTP-induced intracellular calcium release preincubated 30 mins before UTP challenge by fluorescence assay
Assay type: functional, cell-based
reported-metric: IC50

Could you report IC50 for every entry in the following list?
1. O=c1ccn(CCOP(=O)(O)O)c(=O)[nH]1
2. O=c1ccn(COCCOP(=O)(O)O)c(=O)[nH]1
3. O=c1ccn(COCCOP(=O)(O)OP(=O)(O)OP(=O)(O)O)c(=O)[nH]1

Outgoing:
["> 500 µM", "> 500 µM", "> 500 µM"]
